Hello, the source for this data is patent US6930203B2, in case you need it.

TEST_METHOD_NOTES: Solvent scope of N,N′-dialkylaldaramides (1%) or N,N′-dialkylpentaramides (1%): gelation/solubility behaviour in solvents
Assay type: physicochemical
Design: key: g = gelation; s = soluble; p = precipitates; c = crystallizes; ns = not soluble; v = viscous; g* = unstable gel, precipitates; cg = crystalline gel
EXPERIMENTAL_CONTEXT: 1% gelling agent; n-butylacetate
METRIC_NAME: Gelation/solubility behaviour in n-butylacetate

MOLECULE	OBSERVED_RESULT
O=C(NC1CCCCCCCCCCC1)[C@@H](O)[C@@H](O)[C@H](O)[C@@H](O)C(=O)NC1CCCCCCCCCCC1 [Example 15, dicyclododecyl D-glucaramide]	g
O=C(NC1CCCCC1)[C@@H](O)[C@@H](O)[C@@H](O)C(=O)NC1CCCCC1 [Example 4, dicyclohexyl D-ribaramide]	p
CO[C@@H]([C@H](O)[C@H](O)C(=O)NC1CCCCC1)[C@@H](O)C(=O)NC1CCCCC1 [Example 20, 3-O-methyl-dicyclohexyl D-glucaramide]	p
CCCCCCCCCCCCNC(=O)[C@@H](O)[C@H](O)[C@H](O)[C@@H](O)C(=O)NCCCCCCCCCCCC [Example 14, didodecyl galactaramide]	ns

###

TEST_METHOD_NOTES: Solvent scope of N,N′-dialkylaldaramides (1%) or N,N′-dialkylpentaramides (1%): gelation/solubility behaviour in solvents
Assay type: physicochemical
Set-up: key: g = gelation; s = soluble; p = precipitates; c = crystallizes; ns = not soluble; v = viscous; g* = unstable gel, precipitates; cg = crystalline gel
EXPERIMENTAL_CONTEXT: 1% gelling agent; p-xylene
METRIC_NAME: Gelation/solubility behaviour in p-xylene

COMPOUND	OBSERVED_RESULT
CCCCCCCCCCCCNC(=O)[C@@H](O)[C@@H](O)[C@H](OC)[C@@H](O)C(=O)NCCCCCCCCCCCC [Example 21, 3-O-methyl-didodecyl D-glucaramide]	p
O=C(NC1CCCCCCCCCCC1)[C@@H](O)[C@H](O)[C@H](O)[C@@H](O)C(=O)NC1CCCCCCCCCCC1 [Example 17, dicyclododecyl galactaramide]	ns
O=C(NC1CCCCCCCCCCC1)[C@@H](O)[C@@H](O)[C@H](O)[C@H](O)C(=O)NC1CCCCCCCCCCC1 [Example 16, dicyclododecyl D-mannaramide]	ns
CCCCCCCCNC(=O)[C@@H](O)[C@@H](O)[C@H](O)[C@H](O)C(=O)NCCCCCCCC [Example 9, dioctyl D-mannaramide]	ns
CC(C)=CCCC(C)CCNC(=O)[C@@H](O)[C@@H](O)[C@H](O)[C@@H](O)C(=O)NCCC(C)CCC=C(C)C (stereo partly drawn) [Example 11, dicitronellyl D-glucaramide]	p
CO[C@@H]([C@H](O)[C@H](O)C(=O)NC1CCCCCCCCCCC1)[C@@H](O)C(=O)NC1CCCCCCCCCCC1 [Example 22, 3-O-methyl-dicyclododecyl D-glucaramide]	p
CCCCCCCCNC(=O)[C@@H](O)[C@H](O)[C@H](O)[C@@H](O)C(=O)NCCCCCCCC [Example 10, dioctyl galactaramide]	ns

###

TEST_METHOD_NOTES: Solvent scope of N,N′-dialkylaldaramides (1%) or N,N′-dialkylpentaramides (1%): gelation/solubility behaviour in solvents
Type: physicochemical
Parameters: key: g = gelation; s = soluble; p = precipitates; c = crystallizes; ns = not soluble; v = viscous; g* = unstable gel, precipitates; cg = crystalline gel
EXPERIMENTAL_CONTEXT: 1% gelling agent; Ethanol
METRIC_NAME: Gelation/solubility behaviour in Ethanol

COMPOUND	OBSERVED_RESULT
O=C(NC1CCCCCCCCCCC1)[C@@H](O)[C@@H](O)[C@H](O)[C@@H](O)C(=O)NC1CCCCCCCCCCC1 [Example 15, dicyclododecyl D-glucaramide]	cg
CCCCCCCC/C=C\CCCCCCCCNC(=O)[C@@H](O)[C@@H](O)[C@H](O)[C@@H](O)C(=O)NCCCCCCCC/C=C\CCCCCCCC [Example 19, dioleyl D-glucaramide]	c
O=C(NC1CCCCC1)[C@@H](O)[C@@H](O)[C@H](O)[C@@H](O)C(=O)NC1CCCCC1 [Example 5, dicyclohexyl D-glucaramide]	cg
CO[C@@H]([C@H](O)[C@H](O)C(=O)NC1CCCCCCCCCCC1)[C@@H](O)C(=O)NC1CCCCCCCCCCC1 [Example 22, 3-O-methyl-dicyclododecyl D-glucaramide]	p
CCCCNC(=O)[C@@H](O)[C@H](O)[C@H](O)[C@@H](O)C(=O)NCCCC [Example 3, dibutyl galactaramide]	c
CCCCCCCCNC(=O)[C@@H](O)[C@@H](O)[C@H](O)[C@@H](O)C(=O)NCCCCCCCC [Example 8, dioctyl D-glucaramide]	c
CC(C)=CCCC(C)CCNC(=O)[C@@H](O)[C@@H](O)[C@H](O)[C@@H](O)C(=O)NCCC(C)CCC=C(C)C (stereo partly drawn) [Example 11, dicitronellyl D-glucaramide]	s
CCCCCCCCNC(=O)[C@@H](O)[C@@H](O)[C@H](O)[C@H](O)C(=O)NCCCCCCCC [Example 9, dioctyl D-mannaramide]	c
CCCCCCCCCCCCNC(=O)[C@@H](O)[C@@H](O)[C@H](O)[C@@H](O)C(=O)NCCCCCCCCCCCC [Example 12, didodecyl D-glucaramide]	p
CCCCCCCCNC(=O)[C@@H](O)[C@H](O)[C@H](O)[C@@H](O)C(=O)NCCCCCCCC [Example 10, dioctyl galactaramide]	c
O=C(NC1CCCCCCCCCCC1)[C@@H](O)[C@@H](O)[C@H](O)[C@H](O)C(=O)NC1CCCCCCCCCCC1 [Example 16, dicyclododecyl D-mannaramide]	p
O=C(NC1CCCCCCCCCCC1)[C@@H](O)[C@H](O)[C@H](O)[C@@H](O)C(=O)NC1CCCCCCCCCCC1 [Example 17, dicyclododecyl galactaramide]	ns
O=C(NC1CCCCC1)[C@@H](O)[C@@H](O)[C@@H](O)C(=O)NC1CCCCC1 [Example 4, dicyclohexyl D-ribaramide]	s
CCCCCCCCCCCCNC(=O)[C@@H](O)[C@@H](O)[C@H](O)[C@H](O)C(=O)NCCCCCCCCCCCC [Example 13, didodecyl D-mannaramide]	ns
CCCCCCCCCCCCNC(=O)[C@@H](O)[C@H](O)[C@H](O)[C@@H](O)C(=O)NCCCCCCCCCCCC [Example 14, didodecyl galactaramide]	ns
CO[C@@H]([C@H](O)[C@H](O)C(=O)NC1CCCCC1)[C@@H](O)C(=O)NC1CCCCC1 [Example 20, 3-O-methyl-dicyclohexyl D-glucaramide]	c
CCCCCCCCCCCCNC(=O)[C@@H](O)[C@@H](O)[C@H](OC)[C@@H](O)C(=O)NCCCCCCCCCCCC [Example 21, 3-O-methyl-didodecyl D-glucaramide]	p

###

TEST_METHOD_NOTES: Solvent scope of N,N′-dialkylaldaramides (1%) or N,N′-dialkylpentaramides (1%): gelation/solubility behaviour in solvents
Assay type: physicochemical
Parameters: key: g = gelation; s = soluble; p = precipitates; c = crystallizes; ns = not soluble; v = viscous; g* = unstable gel, precipitates; cg = crystalline gel
EXPERIMENTAL_CONTEXT: 1% gelling agent; 2-octanol
METRIC_NAME: Gelation/solubility behaviour in 2-octanol

MOLECULE	OBSERVED_RESULT
CO[C@@H]([C@H](O)[C@H](O)C(=O)NC1CCCCCCCCCCC1)[C@@H](O)C(=O)NC1CCCCCCCCCCC1 [Example 22, 3-O-methyl-dicyclododecyl D-glucaramide]	p
CCCCCCCCNC(=O)[C@@H](O)[C@@H](O)[C@H](O)[C@H](O)C(=O)NCCCCCCCC [Example 9, dioctyl D-mannaramide]	ns
O=C(NC1CCCCCCCCCCC1)[C@@H](O)[C@H](O)[C@H](O)[C@@H](O)C(=O)NC1CCCCCCCCCCC1 [Example 17, dicyclododecyl galactaramide]	ns

###

TEST_METHOD_NOTES: Solvent scope of N,N′-dialkylaldaramides (1%) or N,N′-dialkylpentaramides (1%): gelation/solubility behaviour in solvents
Format: physicochemical
Design: key: g = gelation; s = soluble; p = precipitates; c = crystallizes; ns = not soluble; v = viscous; g* = unstable gel, precipitates; cg = crystalline gel
EXPERIMENTAL_CONTEXT: 1% gelling agent; Toluene
METRIC_NAME: Gelation/solubility behaviour in Toluene

MOLECULE	OBSERVED_RESULT
CCCCCCCCNC(=O)[C@@H](O)[C@H](O)[C@H](O)[C@@H](O)C(=O)NCCCCCCCC [Example 10, dioctyl galactaramide]	ns
CCCCCCCCNC(=O)[C@@H](O)[C@@H](O)[C@H](O)[C@H](O)C(=O)NCCCCCCCC [Example 9, dioctyl D-mannaramide]	ns
CO[C@@H]([C@H](O)[C@H](O)C(=O)NC1CCCCCCCCCCC1)[C@@H](O)C(=O)NC1CCCCCCCCCCC1 [Example 22, 3-O-methyl-dicyclododecyl D-glucaramide]	p
O=C(NC1CCCCCCCCCCC1)[C@@H](O)[C@@H](O)[C@H](O)[C@H](O)C(=O)NC1CCCCCCCCCCC1 [Example 16, dicyclododecyl D-mannaramide]	ns
CCCCCCCCCCCCNC(=O)[C@@H](O)[C@@H](O)[C@H](O)[C@@H](O)C(=O)NCCCCCCCCCCCC [Example 12, didodecyl D-glucaramide]	ns
CCCCCCCC/C=C\CCCCCCCCNC(=O)[C@@H](O)[C@@H](O)[C@H](O)[C@@H](O)C(=O)NCCCCCCCC/C=C\CCCCCCCC [Example 19, dioleyl D-glucaramide]	p
